# Assayed Target: LRRK2, WT (GST-tagged truncated LRRK2) (Homo sapiens)
# Experimental Protocol: LRRK2 kinase assay (LanthaScreen), wild type
# Type: biochemical
# Applied Conditions: wild type LRRK2; LanthaScreen, LRRKtide substrate
# Experimental: LRRK2 kinase activity was measured using Lantha Screen technology from Invitrogen. GST-tagged truncated LRRK2 from Invitrogen (Cat #PV4874) was incubated with a fluorescein-labeled peptide substrate based upon ezrin/radixin/moesin (ERM), also known as LRRKtide (Invitrogen cat #PR8976A), in the presence of a dose response of compound. Upon completion, the assay was stopped and detected with a terbium labeled anti-phospho-ERM antibody (Invitrogen, cat #PR8975A). […]
Measurement Name: IC50 (nM)

Record excerpt, results attached:
Fill in IC50 for FC1(F)COCCC1n1c(Cn2cncn2)nc2cnc3ccc(Cl)cc3c21 (stereo not drawn) [Example 93] tested with LRRK2, WT (GST-tagged truncated LRRK2) (Homo sapiens).
11.9

Using LRRK2, WT (GST-tagged truncated LRRK2) (Homo sapiens) as the test system, report measured IC50 of COCc1cn(Cc2nc3cnc4ccc(F)cc4c3n2C2CN(C)CC2(F)F)nn1 (stereo not drawn) .
7.51

State IC50 (LRRK2, WT (GST-tagged truncated LRRK2) (Homo sapiens)) of Cc1nc2cnc3ccc(Cl)cc3c2n1C1CCOC(CC#N)C1 (stereo not drawn) .
7.86

P = C[C@@H]1C[C@H](n2c(CCC#N)nc3cnc4ccc(Cl)cc4c32)CCO1
Q = Cc1nc(Cc2nc3cnc4ccc(C#N)cc4c3n2[C@@H]2CCN(CC(F)(F)F)C2)no1
R = Cc1nnn(Cc2nc3cnc4ccc(C(F)(F)F)cc4c3n2[C@@H]2CCO[C@H](C)C2)n1
List items by IC50 in falling order. # the answer lists labels in the order requested
R, P, Q

---

# Assayed Target: LRRK2, WT (GST-tagged truncated LRRK2) (Homo sapiens)
# Experimental Protocol: LRRK2 kinase assay (LanthaScreen), wild type
# Format: biochemical
# Applied Conditions: LanthaScreen, LRRKtide substrate, 1 mM ATP
pIC50: −log10 of the molar value.
Measurement Name: pIC50

a = Cc1nn2cc(Cc3nc4cnc5ccc(F)cc5c4n3C3CN(C)CC3(F)F)nc2s1 (stereo not drawn) [enantiomer of Example 85]
b = Cc1nnc(Cc2nc3cnc4ccc(Cl)cc4c3n2C2CCOCC2(F)F)s1 (stereo not drawn) [enantiomer of Example 92]
Among a and b , whose measured pIC50 is the smaller figure? Your answer should be the label attached to the chosen record.
a

A = CC(C#N)Cc1nc2cnc3ccc(Cl)cc3c2n1[C@@H]1CCO[C@H](C)C1 (stereo partly drawn) [diastereomer of Example 78]
B = Fc1ccc2ncc3nc(Cc4csnn4)n([C@H]4CC[C@@H](F)C4)c3c2c1 (relative stereo) [enantiomer of Example 79]
C = Cc1cn(Cc2nc3cnc4ccc(Cl)cc4c3n2C2CCOCC2(F)F)nn1 (stereo not drawn) [enantiomer of Example 46]
D = Cc1cc(Cc2nc3cnc4ccc(Cl)cc4c3n2[C@H]2CCO[C@@H](C(F)F)C2)no1 (relative stereo) [enantiomer of Example 59]
rank_up(items): orders items by reported pIC50 in ascending numerical order. Answer by writing out the labels in the requested order.
D, A, C, B
(D: 6.20, A: 7.43, C: 7.67, B: 8.12)

---

# Assayed Target: mutant G2019S LRRK2 (Homo sapiens (Human), UniProt Q5S007, G2019S)
# Sequence (Q5S007 whole entry G2019S): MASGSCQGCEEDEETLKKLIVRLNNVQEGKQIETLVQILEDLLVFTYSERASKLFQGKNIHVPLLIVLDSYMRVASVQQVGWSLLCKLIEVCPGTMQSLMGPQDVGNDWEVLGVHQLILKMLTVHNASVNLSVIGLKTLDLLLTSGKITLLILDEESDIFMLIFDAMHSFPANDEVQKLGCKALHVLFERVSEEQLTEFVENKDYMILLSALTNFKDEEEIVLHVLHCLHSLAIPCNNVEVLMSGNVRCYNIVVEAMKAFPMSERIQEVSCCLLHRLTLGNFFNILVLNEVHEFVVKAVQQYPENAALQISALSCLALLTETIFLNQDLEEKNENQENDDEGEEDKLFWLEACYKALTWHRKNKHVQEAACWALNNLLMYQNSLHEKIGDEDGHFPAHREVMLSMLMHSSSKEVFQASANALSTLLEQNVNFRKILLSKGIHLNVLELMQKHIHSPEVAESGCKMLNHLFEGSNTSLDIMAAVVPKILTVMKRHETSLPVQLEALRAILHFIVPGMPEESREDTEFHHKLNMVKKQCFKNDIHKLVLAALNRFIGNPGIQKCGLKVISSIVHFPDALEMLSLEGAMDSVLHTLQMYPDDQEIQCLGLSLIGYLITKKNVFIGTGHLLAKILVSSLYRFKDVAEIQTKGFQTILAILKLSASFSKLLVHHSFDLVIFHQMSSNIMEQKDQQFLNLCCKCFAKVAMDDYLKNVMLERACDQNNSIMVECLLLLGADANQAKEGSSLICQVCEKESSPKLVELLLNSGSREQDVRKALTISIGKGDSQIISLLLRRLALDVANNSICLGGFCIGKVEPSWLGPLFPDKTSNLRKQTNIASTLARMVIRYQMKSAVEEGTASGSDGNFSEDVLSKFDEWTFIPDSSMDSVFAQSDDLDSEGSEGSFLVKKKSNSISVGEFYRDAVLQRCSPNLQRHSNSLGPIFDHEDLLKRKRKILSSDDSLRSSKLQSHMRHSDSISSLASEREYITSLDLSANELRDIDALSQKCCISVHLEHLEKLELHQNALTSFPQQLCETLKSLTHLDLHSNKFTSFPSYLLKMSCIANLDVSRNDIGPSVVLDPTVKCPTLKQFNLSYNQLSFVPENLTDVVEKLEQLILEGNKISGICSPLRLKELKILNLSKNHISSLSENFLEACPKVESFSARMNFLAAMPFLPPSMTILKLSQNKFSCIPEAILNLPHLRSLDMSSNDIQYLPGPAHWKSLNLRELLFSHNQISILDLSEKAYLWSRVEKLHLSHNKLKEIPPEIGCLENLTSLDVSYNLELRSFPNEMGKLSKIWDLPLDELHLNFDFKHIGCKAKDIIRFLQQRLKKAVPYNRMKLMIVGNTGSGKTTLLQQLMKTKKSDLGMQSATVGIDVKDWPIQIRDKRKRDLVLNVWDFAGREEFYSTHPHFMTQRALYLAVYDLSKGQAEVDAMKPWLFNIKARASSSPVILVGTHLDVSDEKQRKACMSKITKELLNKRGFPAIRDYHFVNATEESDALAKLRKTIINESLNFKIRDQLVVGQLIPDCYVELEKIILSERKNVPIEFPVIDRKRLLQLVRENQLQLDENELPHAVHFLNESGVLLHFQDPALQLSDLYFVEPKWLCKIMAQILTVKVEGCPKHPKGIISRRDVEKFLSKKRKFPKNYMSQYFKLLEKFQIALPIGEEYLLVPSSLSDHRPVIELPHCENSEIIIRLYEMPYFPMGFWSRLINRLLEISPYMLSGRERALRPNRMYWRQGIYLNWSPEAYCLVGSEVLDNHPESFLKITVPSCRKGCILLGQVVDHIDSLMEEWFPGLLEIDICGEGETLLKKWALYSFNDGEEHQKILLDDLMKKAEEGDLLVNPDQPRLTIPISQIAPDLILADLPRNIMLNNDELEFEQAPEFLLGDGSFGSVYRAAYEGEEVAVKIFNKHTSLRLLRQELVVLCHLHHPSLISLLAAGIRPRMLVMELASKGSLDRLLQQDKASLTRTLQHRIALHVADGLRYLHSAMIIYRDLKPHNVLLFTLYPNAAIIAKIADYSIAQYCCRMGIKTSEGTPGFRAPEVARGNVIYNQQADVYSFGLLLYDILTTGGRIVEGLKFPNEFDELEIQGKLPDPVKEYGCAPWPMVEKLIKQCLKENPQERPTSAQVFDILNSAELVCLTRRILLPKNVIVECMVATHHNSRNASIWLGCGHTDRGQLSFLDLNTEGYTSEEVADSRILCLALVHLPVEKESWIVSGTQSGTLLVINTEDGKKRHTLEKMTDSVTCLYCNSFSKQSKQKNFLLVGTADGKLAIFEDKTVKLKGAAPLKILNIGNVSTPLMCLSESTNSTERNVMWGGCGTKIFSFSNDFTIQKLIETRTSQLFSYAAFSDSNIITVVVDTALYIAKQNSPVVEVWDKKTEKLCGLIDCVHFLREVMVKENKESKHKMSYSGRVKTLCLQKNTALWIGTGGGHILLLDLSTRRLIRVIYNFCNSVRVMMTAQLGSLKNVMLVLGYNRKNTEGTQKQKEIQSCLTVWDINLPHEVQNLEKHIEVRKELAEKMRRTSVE
# Experimental Protocol: LRRK2 kinase assay (LanthaScreen), G2019S mutant
# Assay type: biochemical
# Applied Conditions: G2019S mutant LRRK2; LanthaScreen, LRRKtide substrate; read-out: LRRK2, G2019S IC50
pIC50: −log10 of the molar value.
Measurement Name: pIC50

Item C[C@@H]1C[C@H](n2c(Cn3cncn3)nc3cnc4ccc(C(F)(F)F)cc4c32)CCO1 : provide pIC50
8.10

# return recorded pIC50 for input Cc1nnc(Cc2nc3cnc4ccc(Cl)cc4c3n2C2CN(C)CC2(F)F)s1 (stereo not shown)
8.10

Note down pIC50 recorded for Cc1nc(Cc2nc3cnc4ccc(Cl)cc4c3n2C2CN(C)CC2(F)F)no1 (stereo not shown) [Example 45]
8.24

Report pIC50 for Cc1cnc(Cc2nc3cnc4ccc(Cl)cc4c3n2C2CN(C)CC2(F)F)cn1 (stereo not shown)
8.95

In one line, give reported pIC50 of the entry COc1cnn(Cc2nc3cnc4ccc(C#N)cc4c3n2[C@@H]2CCN(C)C2)c1 .
8.33

a = C[C@@H]1C[C@H](n2c(Cc3cnc(C(F)(F)F)cn3)nc3cnc4ccc(F)cc4c32)CCO1
b = CN1CC(n2c(Cn3cnnn3)nc3cnc4ccc(Cl)cc4c32)C(F)(F)C1 (stereo not shown) [Example 86]
Which entry shows the lesser value of pIC50 here, a or b ? Label of pick, please.
a

P = CC1(C)CC(n2c(Cn3cncn3)nc3cnc4ccc(Cl)cc4c32)CCO1 (stereo not shown)
Q = C[C@@H]1C[C@H](n2c(Cc3nccs3)nc3cnc4ccc(Cl)cc4c32)CCO1
Among P and Q , whose measured pIC50 is the smaller figure? Give the chosen item's label as your response.
P
(P: 7.92, Q: 8.52)

a = Cc1cc(Cc2nc3cnc4ccc(Cl)cc4c3n2C2CN(C)CC2(F)F)no1 (stereo not shown) [Example 52]
b = Cc1nc(Cc2nc3cnc4ccc(Cl)cc4c3n2C2CN(C)CC2(F)F)no1 (stereo not shown) [Example 88]
Higher pIC50 between a and b ? Please respond with the label that marks your chosen entry.
b

---

# Assayed Target: LRRK2, WT (GST-tagged truncated LRRK2) (Homo sapiens)
# Experimental Protocol: LRRK2 kinase assay (LanthaScreen), wild type
# Type: biochemical
# Applied Conditions: LanthaScreen, LRRKtide substrate, 1 mM ATP
Measurement Name: IC50 (nM)

Solved cases (2 shown):
Enter recorded IC50 with LRRK2, WT (GST-tagged truncated LRRK2) (Homo sapiens) for Cc1nc(Cc2nc3cnc4ccc(C#N)cc4c3n2C2CN(C)CC2(F)F)no1 (stereo not drawn) [enantiomer of Example 32] here.
473

Write down the reported IC50 (system: LRRK2, WT (GST-tagged truncated LRRK2) (Homo sapiens)) of Cc1cn(Cc2nc3cnc4ccc(Cl)cc4c3n2C2CN(C)CC2(F)F)nn1 (stereo not drawn) [enantiomer of Example 48]
145

A = Cc1nnn(Cc2nc3cnc4ccc(Cl)cc4c3n2C2CN(C)CC2(F)F)n1 (stereo not drawn) [enantiomer of Example 49]
B = FC1(F)COCCC1n1c(Cn2cncn2)nc2cnc3ccc(Cl)cc3c21 (stereo not shown) [Example 54]
Choose between A and B : whose measured IC50 value is numerically larger? Give the label of your selection.
A

Entry source: patent US11312713B2
